Tested on: BCRP (BCRP-MDCKII monolayer) (Homo sapiens)
Construct: host or cells: MDCKII (canine kidney) cells
Sequence (Q9UNQ0 1-655): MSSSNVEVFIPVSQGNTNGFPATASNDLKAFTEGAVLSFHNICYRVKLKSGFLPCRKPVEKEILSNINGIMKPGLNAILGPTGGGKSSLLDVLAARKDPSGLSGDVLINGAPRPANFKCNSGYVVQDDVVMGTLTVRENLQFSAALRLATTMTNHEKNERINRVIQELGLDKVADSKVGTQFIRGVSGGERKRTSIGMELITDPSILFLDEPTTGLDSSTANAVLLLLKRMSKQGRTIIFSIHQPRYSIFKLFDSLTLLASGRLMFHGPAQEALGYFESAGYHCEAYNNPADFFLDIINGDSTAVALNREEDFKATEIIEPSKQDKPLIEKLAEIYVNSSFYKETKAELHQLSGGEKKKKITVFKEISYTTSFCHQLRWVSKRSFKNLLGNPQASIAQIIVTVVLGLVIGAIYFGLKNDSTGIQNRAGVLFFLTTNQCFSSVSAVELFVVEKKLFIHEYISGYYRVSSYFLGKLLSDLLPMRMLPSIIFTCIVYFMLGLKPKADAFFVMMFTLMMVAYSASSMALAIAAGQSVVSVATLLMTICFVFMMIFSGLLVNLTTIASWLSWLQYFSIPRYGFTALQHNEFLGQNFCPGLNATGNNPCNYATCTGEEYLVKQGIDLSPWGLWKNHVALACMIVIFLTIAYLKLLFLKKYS
Method: MDCKII-BCRP bidirectional transport assay
Format: in vitro ADME
Lab note: anything with MDCK-BCRP: Efflux Ratio at or over 10 counts as 1 (yes); the rest go in 0 (no).

In: Answer whether MDCK-BCRP: Efflux Ratio of Cc1ccc(-c2noc([C@H](C)O)n2)cc1NC(=O)c1cnc2ccccn12 [Compound I-271] is greater than or equal to 10.
Out: 1 (yes)

In: Answer whether MDCK-BCRP: Efflux Ratio of Cc1cc(C)cc(Nc2ccc3ncc(C(=O)Nc4cc(-c5noc([C@H]6C[C@@H]6F)n5)ccc4C)n3c2)c1 [Compound I-299] is greater than or equal to 10.
Out: 1 (yes)

In: Answer whether MDCK-BCRP: Efflux Ratio of Cc1ccc(-c2noc(C3CN(C(N)=O)C3)n2)cc1NC(=O)c1cnc2ccccn12 [Compound I-268] is greater than or equal to 10.
Out: 1 (yes)

In: Answer whether MDCK-BCRP: Efflux Ratio of CC(C)(C)OC(=O)N1CC(c2nc(-c3ccc(Br)c(NC(=O)c4cnc5ccccn45)c3)no2)C1 [Compound I-332] is greater than or equal to 10.
Out: 0 (no)

In: Answer whether MDCK-BCRP: Efflux Ratio of Cc1ccc(-c2noc(-c3ccccn3)n2)cc1NC(=O)c1cnc2ccccn12 [Compound I-272] is greater than or equal to 10.
Out: 0 (no)

In: Answer whether MDCK-BCRP: Efflux Ratio of Cc1ccc(-c2noc([C@H]3C[C@@H]3F)n2)cc1NC(=O)c1cnc2ccc(C#N)cn12 [Compound I-384] is greater than or equal to 10.
Out: 1 (yes)

In: Answer whether MDCK-BCRP: Efflux Ratio of Cc1ccc(-c2noc([C@H]3C[C@@H]3F)n2)cc1NC(=O)c1cnc2cc(OC(C)C)ccn12 [Compound I-88] is greater than or equal to 10.
Out: 0 (no)

* * *

Method: Three time point assay for plasma, brain and testes distribution after oral dosing
Assay type: in vivo, rat
Assay context: male, SD, brain, 10 mg/kg; rat, oral dosing, time point 7 h; read-out: Brain concentration
Description: Exemplary compounds were tested for distribution in plasma, brain and testes tissue following oral dosing of the compounds in rats. Procedures and results are described below. […] For PO dosing, the dose formulation was administered via oral gavage following facility SOPs. The dose volume was determined by the animals' body weight collected on the morning of dosing day. […]
Reported metric: concentration at 7 h (ng/g)
Dear colleague, please return just the value in ng/g, with no unit written.

In: Would you mind telling me what concentration at 7 h value was observed for Cc1ccc(-c2noc([C@H]3C[C@@H]3F)n2)cc1NC(=O)c1cnc2cc(COCC(C)(C)O)ccn12 ?
Out: 126

* * *

Tested on: wtKIT (Homo sapiens)
Construct: 1888289AM in the reaction mixtures
Sequence (P10721 26-976): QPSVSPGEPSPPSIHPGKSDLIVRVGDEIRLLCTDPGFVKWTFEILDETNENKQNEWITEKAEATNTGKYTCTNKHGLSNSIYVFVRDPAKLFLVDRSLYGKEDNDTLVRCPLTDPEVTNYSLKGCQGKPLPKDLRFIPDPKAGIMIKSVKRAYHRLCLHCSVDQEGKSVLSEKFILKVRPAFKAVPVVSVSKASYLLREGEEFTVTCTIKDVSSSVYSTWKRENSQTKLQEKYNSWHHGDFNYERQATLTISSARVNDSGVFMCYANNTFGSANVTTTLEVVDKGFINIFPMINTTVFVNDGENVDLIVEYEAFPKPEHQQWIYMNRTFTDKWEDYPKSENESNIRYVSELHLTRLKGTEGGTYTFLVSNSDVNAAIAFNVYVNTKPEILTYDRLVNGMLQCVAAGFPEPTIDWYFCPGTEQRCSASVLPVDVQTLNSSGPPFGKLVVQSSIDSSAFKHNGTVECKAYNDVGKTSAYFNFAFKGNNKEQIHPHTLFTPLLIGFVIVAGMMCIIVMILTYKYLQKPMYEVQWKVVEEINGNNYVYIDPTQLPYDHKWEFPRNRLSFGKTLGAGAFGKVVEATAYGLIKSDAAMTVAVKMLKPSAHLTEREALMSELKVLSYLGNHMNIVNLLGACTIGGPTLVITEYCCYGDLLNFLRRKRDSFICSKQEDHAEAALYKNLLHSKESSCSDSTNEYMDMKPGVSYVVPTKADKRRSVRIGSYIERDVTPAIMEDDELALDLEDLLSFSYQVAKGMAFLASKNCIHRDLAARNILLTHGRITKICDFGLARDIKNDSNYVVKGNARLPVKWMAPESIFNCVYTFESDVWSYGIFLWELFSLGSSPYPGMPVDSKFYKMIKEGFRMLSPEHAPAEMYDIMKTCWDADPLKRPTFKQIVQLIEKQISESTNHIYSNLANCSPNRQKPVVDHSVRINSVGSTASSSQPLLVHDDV
Method: HTRF biochemical assay, wtKIT (phosphorylation of a peptide substrate)
Assay context: Table 4
Reported metric: IC50

In: Would you mind telling me what IC50 value was observed for Cc1ccc(-c2noc([C@H]3C[C@@H]3F)n2)cc1NC(=O)c1cnn2ccc(F)cc12 [Compound I-496] ?
Out: ≤ 50 nM

In: Would you mind telling me what IC50 value was observed for Cc1ccc(-c2noc([C@H]3C[C@@H]3F)n2)cc1NC(=O)c1cnn2cc(CCOCCO)ccc12 [Compound I-503] ?
Out: ≤ 50 nM

In: Would you mind telling me what IC50 value was observed for CCNc1ccn2c(C(=O)Nc3cc(-c4noc(C)n4)ccc3C)cnc2c1 [Compound I-229] ?
Out: ≤ 50 nM

In: Would you mind telling me what IC50 value was observed for Cc1nc(-c2ccc(C)c(NC(=O)c3cnc4ccc(N)cn34)c2)no1 [Compound I-219] ?
Out: ≤ 50 nM

In: Would you mind telling me what IC50 value was observed for Cc1ccc(-c2noc(CCC(C)(C)O)n2)cc1NC(=O)c1cnc2cc(COCC(C)(C)O)ccn12 [Compound I-567] ?
Out: 50 to 500 nM

In: Would you mind telling me what IC50 value was observed for Cc1ccc(-c2noc(-c3ccccn3)n2)cc1NC(=O)c1cnc2cc(COCC(C)(C)O)ccn12 [Compound I-573] ?
Out: 50 to 500 nM

In: Would you mind telling me what IC50 value was observed for Cc1ccc(-c2noc([C@H]3CCN3)n2)cc1NC(=O)c1cnc2cc(-c3ccn(C)n3)ccn12 [Compound I-624] ?
Out: ≤ 50 nM

In: Would you mind telling me what IC50 value was observed for CCc1nc(-c2ccc(C)c(NC(=O)c3cnn4cc(-c5ccn(C)n5)ccc34)c2)no1 [Compound I-722] ?
Out: ≤ 50 nM

* * *

Would you mind telling me the reported Kp testes/plasma of each entry?
Method: Three time point assay for plasma, brain and testes distribution after oral dosing
Assay type: in vivo, rat
Assay context: rat, oral dosing, time point 7 h
// return just the number, without any unit appended

In: Would you mind telling me what Kp testes/plasma value was observed for COc1ccn2c(C(=O)Nc3cc(-c4noc(CC(O)C(F)F)n4)ccc3C)cnc2c1 (single isomer, unassigned) [Compound I-40] ?
Out: 0.41

In: Would you mind telling me what Kp testes/plasma value was observed for Cc1ccc(-c2noc(CC(O)C(F)F)n2)cc1NC(=O)c1cnc2ccccn12 (stereo not shown) [Compound I-114] ?
Out: 0.38

In: Would you mind telling me what Kp testes/plasma value was observed for Cc1ccc(-c2noc([C@H]3C[C@@H]3F)n2)cc1NC(=O)c1cnc2cc(OC(F)(F)F)ccn12 [Compound I-87] ?
Out: 0.34

In: Would you mind telling me what Kp testes/plasma value was observed for Cc1ccc(-c2noc([C@H]3C[C@@H]3F)n2)cc1NC(=O)c1cnc2cc(OC(C)C)ccn12 [Compound I-88] ?
Out: 0.21

* * *

Tested on: BCRP (BCRP-MDCKII monolayer) (Homo sapiens, UniProt Q9UNQ0)
Construct: host or cells: MDCKII (canine kidney) cells
Method: MDCKII-BCRP bidirectional transport assay
Assay type: in vitro ADME
Would you mind telling me the reported MDCK-BCRP: Efflux Ratio of each entry?
// return just the number, without any unit appended

In: Would you mind telling me what MDCK-BCRP: Efflux Ratio value was observed for CCCNc1ccn2c(C(=O)Nc3cc(-c4noc([C@H]5C[C@@H]5F)n4)ccc3C)cnc2c1 ?
Out: 3.43

In: Would you mind telling me what MDCK-BCRP: Efflux Ratio value was observed for Cc1ccc(-c2noc(C3CN(C(=O)CO)C3)n2)cc1NC(=O)c1cnc2ccccn12 ?
Out: 0.65

In: Would you mind telling me what MDCK-BCRP: Efflux Ratio value was observed for CCOC1CC(c2nc(-c3ccc(C)c(NC(=O)c4cnc5ccccn45)c3)no2)C1 (stereo not shown) [Compound I-310] ?
Out: 0.81

In: Would you mind telling me what MDCK-BCRP: Efflux Ratio value was observed for COC(=O)N1CC(c2nc(-c3ccc(C)c(NC(=O)c4cnc5ccc(OC[C@H](C)O)cn45)c3)no2)C1 ?
Out: 16.9

In: Would you mind telling me what MDCK-BCRP: Efflux Ratio value was observed for COC(=O)N1CC(c2nc(-c3ccc(C)c(NC(=O)c4cnn5cc(C#N)ccc45)c3)no2)C1 ?
Out: 6.11

In: Would you mind telling me what MDCK-BCRP: Efflux Ratio value was observed for Cc1ccc(-c2noc(C3CC(Oc4ccccc4)C3)n2)cc1NC(=O)c1cnc2ccccn12 (stereo not shown) [Compound I-347] ?
Out: 1.28

In: Would you mind telling me what MDCK-BCRP: Efflux Ratio value was observed for COC1(OC)CCC1c1nc(-c2ccc(C)c(NC(=O)c3cnc4ccccn34)c2)no1 (racemic) ?
Out: 1.13
